- Tested on: Escherichia coli
- test: Antibacterial activity against Escherichia coli ATCC 25922
- Type: functional
property-name: MIC (µg/mL)

[
  {
    "compound": "CNC1CCN(c2c(F)cc3c(=O)c(C(=O)O)cn4c3c2OC[C@@H]4C)C/C1=N\\OC (some centres not stated)",
    "measured-on": "Escherichia coli",
    "quantity-unit": "µg/mL",
    "measured-result": 0.25
  },
  {
    "compound": "CO/N=C1\\CN(c2nc3c(cc2F)c(=O)c(C(=O)O)cn3C2CC2)CCC1N (configuration not stated)",
    "measured-on": "Escherichia coli",
    "quantity-unit": "µg/mL",
    "measured-result": 32
  },
  {
    "compound": "CCn1cc(C(=O)O)c(=O)c2cc(F)c(N3CCC(NC)/C(=N/OC)C3)c(F)c21 (configuration not stated)",
    "measured-on": "Escherichia coli",
    "quantity-unit": "µg/mL",
    "measured-result": 0.5
  },
  {
    "compound": "CO/N=C1\\CN(c2nc3c(cc2F)c(=O)c(C(=O)O)cn3C2CC2)CC1CN (configuration not stated)",
    "measured-on": "Escherichia coli",
    "quantity-unit": "µg/mL",
    "measured-result": 0.015
  },
  {
    "compound": "CO/N=C1\\CN(c2c(F)cc3c(=O)c(C(=O)O)cn(C4CC4)c3c2OC)CCC1N (configuration not stated)",
    "measured-on": "Escherichia coli",
    "quantity-unit": "µg/mL",
    "measured-result": 4
  },
  {
    "compound": "CCO/N=C1\\CN(c2c(F)cc3c(=O)c(C(=O)O)cn(C4CC4)c3c2F)CCC1NC (configuration not stated)",
    "measured-on": "Escherichia coli",
    "quantity-unit": "µg/mL",
    "measured-result": 16
  },
  {
    "compound": "CCO/N=C1\\CN(c2c(F)cc3c(=O)c(C(=O)O)cn4c3c2OC[C@@H]4C)CCC1NC (some centres not stated)",
    "measured-on": "Escherichia coli",
    "quantity-unit": "µg/mL",
    "measured-result": 16
  }
]
